subject of test: T1, Aβ1-42 fibrils (human)
T1 construct: Aβ1-42 polypeptide, HFIP-treated, incubated in 10 mM HCl at 37 C for 24 h, pelleted fibrillar fraction, sonicated; Multimeric fibril; also called fibril Aβ42; fibrillar Aβ42
procedure text: competition ELISA; plate coated with fibril Aβ42; competitor hBP-biotin; IC50 of test divided by IC50 of hBP
measured parameter: IC50 ratio (test:hBP) (ratio)

>  <binder>
h2831 (antibody, V domains shown, Humanized IgG mAb; also called PB-0575) VH: EVQLLESGGGLVQPGGSLRLSCAASGFTFSNFGMSWVRQAPGKGLEWVASVRSGSGRTYYSDNVKGRFTISRDNSKNTLYLQMNSLRAEDTAVYYCVRYDHYSGTSDYWGQGTLVTVSS VL: DVVMTQSPLSLPVTLGEPASISCKSSQSLLDYDGKTYLNWLLQKPGQSPQRLIYRVTNRDTGVPDRFSGSGSGTDFTLKISRVEAEDVGVYYCWQGTHFPRSFGQGTKVEIK

>  <measured parameter>
IC50 ratio (test:hBP)

>  <readout number>
0.77

$$$$
>  <binder>
h2731 (antibody, V domains shown, Humanized IgG mAb; Only the variable domains are tied to the construct) VH: EVQLLESGGGLVQPGGSLRLSCAASGFTFSNYGMSWVRQAPGKGLEWVASIRSGSGRTYYSDNVKGRFTISRDNSKNTLYLQMNSLRAEDTAVYYCVRYDHYSGSSDYWGQGTLVTVSS VL: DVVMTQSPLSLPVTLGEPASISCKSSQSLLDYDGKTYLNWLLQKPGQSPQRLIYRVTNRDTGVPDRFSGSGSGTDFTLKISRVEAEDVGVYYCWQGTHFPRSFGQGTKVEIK

>  <measured parameter>
IC50 ratio (test:hBP)

>  <readout number>
0.61

$$$$
>  <binder>
h2931 (antibody, V domains shown, also called PB-0576) VH: EVQLLESGGGLVQPGGSLRLSCAASGFTFSNFGMSWVRQAPGKGLEWVASVRSGSGRTYYSDNVKGRFTISRDNSKNTLYLQMNSLRAEDTAVYYCVRYDHYTGTSDYWGQGTLVTVSS VL: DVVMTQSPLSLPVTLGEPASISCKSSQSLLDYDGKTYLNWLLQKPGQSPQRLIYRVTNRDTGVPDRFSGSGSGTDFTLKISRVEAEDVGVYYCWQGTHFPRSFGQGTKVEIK

>  <measured parameter>
IC50 ratio (test:hBP)

>  <readout number>
0.59

$$$$
>  <binder>
h2726 (antibody, V domains shown, Humanized IgG mAb; Only the variable domains are tied to the construct; also called PB-0573) VH: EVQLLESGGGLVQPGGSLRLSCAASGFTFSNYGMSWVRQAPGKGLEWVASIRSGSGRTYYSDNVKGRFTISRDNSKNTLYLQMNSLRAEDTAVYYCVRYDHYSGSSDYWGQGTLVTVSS VL: DVVMTQSPLSLPVTPGEPASISCKSSQSLLDYDGKTYLNWLLQKPGQSPQRLIYKVSNRDSGVPDRFSGSGSGTDFTLKISRVEAEDVGVYYCWQGTHFPRTFGQGTKVEIK

>  <measured parameter>
IC50 ratio (test:hBP)

>  <readout number>
0.68

$$$$
